# TARGET_DESC: T1, corticotropin releasing factor 2 receptor; further: reference of the scale not given here
# T1 sequence (Q13324 whole entry, species assumed, looked up): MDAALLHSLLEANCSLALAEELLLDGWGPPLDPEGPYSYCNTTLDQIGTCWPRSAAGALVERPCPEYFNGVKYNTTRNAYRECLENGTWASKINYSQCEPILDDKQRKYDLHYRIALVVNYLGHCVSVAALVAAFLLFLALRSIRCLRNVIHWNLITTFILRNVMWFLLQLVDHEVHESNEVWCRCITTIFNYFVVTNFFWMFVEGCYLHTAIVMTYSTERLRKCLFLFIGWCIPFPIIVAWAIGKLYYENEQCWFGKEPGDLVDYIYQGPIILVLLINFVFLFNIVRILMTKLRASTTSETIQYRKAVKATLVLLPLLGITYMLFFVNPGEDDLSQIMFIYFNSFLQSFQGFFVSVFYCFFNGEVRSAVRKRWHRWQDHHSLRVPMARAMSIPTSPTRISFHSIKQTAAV
# RUN_DESCRIPTION: cell-based or functional assay
Ends that are not written are not given here.
ASSAY_READOUT: CRF2R Emax (%)

• ZGPPISIDLPYVLLRKMIEIEKQEKEKQQAANNRLLLDTI (C-terminal amide) [SEQ ID NO 201] = 100
• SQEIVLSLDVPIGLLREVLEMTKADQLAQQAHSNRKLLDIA-NH2 [SEQ ID NO 7] = 19
• IVLSLDVPIGLLQILLEQARQEAAREQATTNARILARV-NH2 [SEQ ID NO 123] = 93.8
• ZGPPISIDLPTNLLRKMIEIEKQEKEKQQAANNRLLLDTI (C-terminal amide) [SEQ ID NO 59] = 27
• ZGPPISIDLPIQLLRKMIEIEKQEKEKQQAANNRLLLDTI (C-terminal amide) [SEQ ID NO 78] = 78
• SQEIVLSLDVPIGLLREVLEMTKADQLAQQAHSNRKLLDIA-NH2 [SEQ ID NO 152] = 19
